// data source = the NIST ThermoML archive (doi:10.1021/je060139a)

- protocol: refractive index (Na D-line) (dimensionless); xn = mol fraction of the nth substance listed
- testConditions: 298.18 K; 100.5 kPa; Liquid; Standard Abbe refractometry; x1 = 0.6
readoutName: refractive index

molecule	obsValue
CCOC(=O)c1ccccc1O [ethyl 2-hydroxybenzoate] + CCO	1.48782
COC(=O)c1ccccc1 [methyl benzoate] + CCO	1.4793
CCOC(=O)CC(C)=O [ethyl 3-oxobutanoate] + CCO	1.4036
CCOC(=O)CC(C)C [ethyl 3-methylbutanoate] + CCO	1.38684
CCC(=O)OCc1ccccc1 [benzyl propanoate] + CCO	1.46929
CC(=O)OCc1ccccc1 [benzyl ethanoate] + CCO	1.47065

* * *

- protocol: refractive index (Na D-line) (dimensionless); xn = mol fraction of the nth substance listed
- testConditions: 298.18 K; 100.5 kPa; Liquid; Standard Abbe refractometry; x1 = 0.1
readoutName: refractive index

compound	refractive index
CC(=O)OCc1ccccc1 [benzyl ethanoate] + CCO	1.39033
COC(=O)c1ccccc1 [methyl benzoate] + CCO	1.39068
CCOC(=O)CC(C)=O [ethyl 3-oxobutanoate] + CCO	1.3709
CCC(=O)OCc1ccccc1 [benzyl propanoate] + CCO	1.39185
CCOC(=O)c1ccccc1O [ethyl 2-hydroxybenzoate] + CCO	1.39599
CCOC(=O)CC(C)C [ethyl 3-methylbutanoate] + CCO	1.36724

* * *

- protocol: xn = mol fraction of the nth substance listed
- testConditions: 298.18 K, Wilhelmy plate method, x1 = 0.6
readoutName: surface tension liquid-gas (mN/m)

molecule	surface tension liquid-gas [mN/m]
CCOC(=O)CC(C)C [ethyl 3-methylbutanoate] + CCO	23.1
CCOC(=O)CC(C)=O [ethyl 3-oxobutanoate] + CCO	28.52
CC(=O)OCc1ccccc1 [benzyl ethanoate] + CCO	30.36
COC(=O)c1ccccc1 [methyl benzoate] + CCO	30.41
CCC(=O)OCc1ccccc1 [benzyl propanoate] + CCO	29.43
CCOC(=O)c1ccccc1O [ethyl 2-hydroxybenzoate] + CCO	29.25

* * *

- protocol: xn = mol fraction of the nth substance listed
- testConditions: 288.15 K, Wilhelmy plate method, x1 = 0.3
readoutName: surface tension liquid-gas (mN/m)

compound	surface tension liquid-gas [mN/m]
CCC(=O)OCc1ccccc1 [benzyl propanoate] + CCO	27.23
CC(=O)OCc1ccccc1 [benzyl ethanoate] + CCO	27.3
CCOC(=O)CC(C)=O [ethyl 3-oxobutanoate] + CCO	26.28
CCOC(=O)c1ccccc1O [ethyl 2-hydroxybenzoate] + CCO	27.2
COC(=O)c1ccccc1 [methyl benzoate] + CCO	27.67
CCOC(=O)CC(C)C [ethyl 3-methylbutanoate] + CCO	23.62

* * *

- protocol: refractive index (Na D-line) (dimensionless); xn = mol fraction of the nth substance listed
- testConditions: 298.18 K; 100.5 kPa; Liquid; Standard Abbe refractometry; x1 = 0.75
readoutName: refractive index

molecule	obsValue
CC(=O)OCc1ccccc1 [benzyl ethanoate] + CCO	1.48358
CCOC(=O)CC(C)C [ethyl 3-methylbutanoate] + CCO	1.38993
CCC(=O)OCc1ccccc1 [benzyl propanoate] + CCO	1.48092
CCOC(=O)CC(C)=O [ethyl 3-oxobutanoate] + CCO	1.4093
COC(=O)c1ccccc1 [methyl benzoate] + CCO	1.49482
CCOC(=O)c1ccccc1O [ethyl 2-hydroxybenzoate] + CCO	1.50232
